Species: Homo sapiens
Assay: Selectivity ratio of Ki for human CB1 to Ki for human CB2
The entries below come with measured log(ratioKi) values attached.
Reply briefly: the number, and no unit.

Solved cases (5 shown):
| compound | log(ratioKi) |
| --- | --- |
| CC1(C)C(C(=O)c2cn(CCN3CCOCC3)c3cccc(N)c23)C1(C)C | 2.05 |
| C=CCCn1cc(C(=O)NC23CC4CC(CC(C4)C2)C3)c(=O)c2cc(-c3ccco3)ccc21 | 3.35 |
| CN1CCCCC1Cn1cc(C(=O)c2cc([N+](=O)[O-])ccc2I)c2ccccc21 (centres undefined) | 2.64 |
| CCC(C)(C)C(=O)Cc1cc(C)c(C)c(S(=O)(=O)N2CCCCC2)c1 | 2.38 |
| CC1=CC[C@@H]2[C@@H](C1)c1c(O)cc(C(C)(C)C3CCCCCC3)cc1OC2(C)C | 0.63 |

Provide one value: measured log(ratioKi) of CC1(C)C(C(=O)c2cn(CC3CCOCC3)c3cc(O)ccc23)C1(C)C
2.55

# return recorded log(ratioKi) for entry CC1=CC[C@@H]2[C@@H](C1)c1c(O)cc(-c3cccc4ccccc34)cc1OC2(C)C
0.09

Note down log(ratioKi) recorded for CC1(C)C(C(=O)c2cn(C[C@@H]3CCCO3)c3ccccc23)C1(C)C
1.82

Input CCCCCCC1(c2cc(O)c3c(c2)OC(C)(C)[C@@H]2CC=C(C)C[C@@H]32)OCCO1 , output reported log(ratioKi).
0.43
